Can you tell me GI50 for the items I'm about to list?
System: SK-MEL-2 melanoma
protocol_description: NCI tumour cell line growth inhibition, 48 h

Reported SK-MEL-2 melanoma GI50 for item CC(CN=C(CC(=O)c1ccc(Br)cc1)c1ccccc1)N=C(CC(=O)c1ccc(Br)cc1)c1ccccc1 (stereo not drawn) was 3.48 µM

Reported SK-MEL-2 melanoma GI50 for item Cc1ccc2c(c1)C(=O)c1c-2n(CCCN)c(=O)c2cc([N+](=O)[O-])ccc12 was 1.37 µM

Reported SK-MEL-2 melanoma GI50 for item S=c1nc(-c2ccccc2)oc(=NC2CCCCC2)n1C1CCCCC1 was 4.51 µM

Reported SK-MEL-2 melanoma GI50 for item COc1cc(-c2cc(-c3ccc(N(C)C)cc3)nc(N3CCOCC3)c2C#N)cc(OC)c1OC was 1.14 µM

Reported SK-MEL-2 melanoma GI50 for item CC1(C)N=C(N)N=C(N)N1c1cccc(C#N)c1 was 8.99 µM

Reported SK-MEL-2 melanoma GI50 for item C=C1CCC2C3(C)COC(c4ccc(NC(C)=O)cc4)OC3CCC2(C)C1C/C=C1/C(=O)OCC1O (stereo not drawn) was 8.12 µM

Reported SK-MEL-2 melanoma GI50 for item CN(C)c1ccc(/C=C2\C[C@H]3[C@@H]4CC=C5C[C@@H](N6CCCC6)CC[C@]5(C)[C@H]4CC[C@]3(C)[C@H]2O)cc1 was 2 µM

Reported SK-MEL-2 melanoma GI50 for item Cl.[Pt].[c-]1ccccc1-c1ccccn1.c1ccc(P(c2ccccc2)C([PH+](c2ccccc2)c2ccccc2)[PH+](c2ccccc2)c2ccccc2)cc1 was 2.09 µM

* * *

Test system: HS 578T breast
protocol_description: NCI tumour cell line growth inhibition, 48 h
endpoint_label: TGI

The reported value for Cc1ccc(S(=O)(=O)n2cncc2CO)cc1 in terms of TGI is > 100 µM

The reported value for Cc1csc2c1C(=O)c1ccsc1C2=O in terms of TGI is 4.37 µM

The reported value for NC(=O)c1cn(C2OC(CO)C(O)C2O)c2ncnc(N)c12 (configuration not stated) in terms of TGI is 0.0758 µM

The reported value for O=C(N/N=C\c1cccc2ccccc12)Nc1ccc([N+](=O)[O-])cc1 in terms of TGI is > 100 µM

The reported value for Cn1nc(C(F)(F)F)c(-c2ccc(Cl)c(C(F)(F)F)c2)c1-c1ccc(OCc2ccc(Cl)cc2)cc1O in terms of TGI is 8.98 µM

The reported value for COC(=O)c1ccc(-c2nc(C#N)c(N)o2)cc1 in terms of TGI is > 100 µM

The reported value for CCc1nnc(-n2c(C)nc3cc(Cl)ccc3c2=O)s1 in terms of TGI is > 100 µM

The reported value for Clc1nc(-[n+]2ccc(-c3ccncc3)cc2)nc(Nc2ccccc2)c1Cl in terms of TGI is > 100 µM

The reported value for COc1ccc(/C=C/c2cc(O)cc(OC)c2)cc1 in terms of TGI is > 100 µM

The reported value for O=C1NC(=O)/C(=C/C=C/c2ccccc2)S1 in terms of TGI is > 100 µM

The reported value for CC(C)(CO)CNc1nc(N)nc(Cl)c1N in terms of TGI is > 100 µM

The reported value for N#Cc1c(NC(=O)c2ccccc2)sc2c1CCC(=O)C2 in terms of TGI is 7.32 µM

The reported value for N#CC1=C(N)C(C#N)(C#N)C(c2ccc(F)cc2)C=C1C1CC1 (configuration not stated) in terms of TGI is > 100 µM

The reported value for C/C(=C/CO[Si](C)(C)C(C)(C)C)C(=O)N(C)c1ccccc1I in terms of TGI is 43.5 µM

The reported value for O=C(O)C(CCc1ccccn1)c1ccccc1 (configuration not stated) in terms of TGI is > 100 µM

The reported value for CC(C)CCC[C@@H](C)[C@H]1CC[C@H]2[C@@H]3CC=C4C[C@@H](OC(=O)c5cccc6c(=O)c7ccccc7[nH]c56)CC[C@]4(C)[C@H]3CC[C@]12C in terms of TGI is > 75 µM

The reported value for COC(=O)C(/C(=N/NC(=O)c1ccncc1)C(=O)Nc1ccccc1OC)c1nc2ccc(Cl)cc2[nH]c1=O (configuration not stated) in terms of TGI is > 100 µM

The reported value for OCC1OC(n2cnc3cccnc32)CC1O (configuration not stated) in terms of TGI is > 100 µM

The reported value for CNC(=O)CCC(NC(C)=O)C(=O)NC(Cc1ccc(NC(=O)CCCCC(C)=O)cc1)C(=O)NC(CCC(=O)NC)C(=O)NC (configuration not stated) in terms of TGI is > 100 µM

The reported value for COc1ccc(-c2ccc3c(NC(=O)C4CC4)n[nH]c3n2)cc1 in terms of TGI is > 25 µM

The reported value for C/C(O)=C(\C=N\C(N)=S)C(=O)Nc1ccccc1C in terms of TGI is > 100 µM

The reported value for S=c1nc(-c2nc(=S)[nH]c3c2CCCCCCCCCC3)c2c([nH]1)CCCCCCCCCC2 in terms of TGI is > 100 µM

* * *

Tested on: OVCAR-3 ovarian
protocol_description: NCI tumour cell line growth inhibition, 48 h
endpoint_label: TGI (µM)
Hi! Could you send only the number? It should be in µM, unit omitted.

The reported value for CCC1(CC)C(=O)CC[C@@]2(C)C1=CC[C@H]1[C@@H]3CC[C@H](O)[C@@]3(C)CC[C@@H]12 in terms of TGI is 45

The reported value for CC(CN=C(CC(=O)c1ccc(Br)cc1)c1ccccc1)N=C(CC(=O)c1ccc(Br)cc1)c1ccccc1 (stereo not given) in terms of TGI is 14.7

The reported value for CCC1C(C)c2c([nH]c3ccccc23)C2C(=O)N(c3ccccc3)C(=O)C21 (stereo not given) in terms of TGI is 27.1

The reported value for CN1/C(=C\C(I)C(I)C2=[N+](C)c3ccccc3C2(C)C)C(C)(C)c2ccccc21 (stereo not given) in terms of TGI is 13.8

* * *

System: A549 NSCLC
protocol_description: NCI tumour cell line growth inhibition, 48 h
Can you tell me TGI for the items I'm about to list?

Reported A549 NSCLC TGI for item CCN1CCN(c2nc(NNC(=O)Cc3ccccc3)nc(N3CCN(C(c4ccccc4)c4ccccc4)CC3)n2)CC1 was 5.23 µM

Reported A549 NSCLC TGI for item O=P(Oc1ccc(Cl)cc1)(Oc1ccc(Cl)cc1)N1CC1 was > 10 µM

Reported A549 NSCLC TGI for item CC(=O)O[C@H]1C#C/C=C\C#CC[C@@H]2C(=O)N(C(=O)OC(C)(C)C)[C@@H]12 was > 100 µM

Reported A549 NSCLC TGI for item CC(C)C[C@H](NC(=O)[C@H](CCc1ccccc1)NC(=O)CN1CCOCC1)C(=O)N[C@@H](Cc1ccccc1)C(=O)N[C@@H](CC(C)C)C(=O)[C@@]1(C)CO1 was 0.204 µM

Reported A549 NSCLC TGI for item Nc1[nH]c(=O)ncc1F was > 100 µM

Reported A549 NSCLC TGI for item CC(C)(CO)CNc1nc(N)nc(Cl)c1N was > 100 µM

Reported A549 NSCLC TGI for item COc1cc(C2C3=C(CCC3=O)Oc3cc4c(cc32)OCO4)cc(OC)c1OC (stereo not given) was > 100 µM

Reported A549 NSCLC TGI for item Clc1nc(-[n+]2ccc(-c3ccncc3)cc2)nc(Nc2ccccc2)c1Cl was > 100 µM

Reported A549 NSCLC TGI for item O=C1c2ccccc2C(=O)c2c(NCCCNCCO)ccc(NCCCNCCO)c21 was 47.3 µM

Reported A549 NSCLC TGI for item Oc1ccc2oc3ncc(Cl)c(-c4ccccc4)c3c2c1 was > 100 µM

Reported A549 NSCLC TGI for item O=C1NC(=O)/C(=C/C=C/c2ccccc2)S1 was > 100 µM

Reported A549 NSCLC TGI for item COC(=O)C(=O)C1(CCC(C)=O)c2ccccc2-c2ccccc21 was > 100 µM

Reported A549 NSCLC TGI for item N#Cc1cccc(NC(=O)c2ccc(C(=O)O)c(C(=O)c3ccc(C(=O)O)c(C(=O)Nc4cccc(C#N)c4)c3)c2)c1 was > 100 µM

Reported A549 NSCLC TGI for item CC(CN=C(CC(=O)c1ccc(Br)cc1)c1ccccc1)N=C(CC(=O)c1ccc(Br)cc1)c1ccccc1 (stereo not given) was > 100 µM

Reported A549 NSCLC TGI for item CNC(=O)CCC(NC(C)=O)C(=O)NC(Cc1ccc(NC(=O)CCCCC(C)=O)cc1)C(=O)NC(CCC(=O)NC)C(=O)NC (stereo not given) was > 100 µM

Reported A549 NSCLC TGI for item CCOC(=O)c1sc(-c2ccc(OS(=O)(=O)c3cccs3)c(C=O)c2)nc1C was 6.72 µM

Reported A549 NSCLC TGI for item CCCn1c(C23CC4CC(CC(C4)C2)C3)nc2ccc(Cl)cc2c1=O was > 100 µM

Reported A549 NSCLC TGI for item CCCCCc1cc2c(cc1O)CC[C@@H]1[C@@H]2CC[C@]2(C)[C@@H](O)CC[C@@H]12 was 37.9 µM

Reported A549 NSCLC TGI for item Cc1ccc(Cl)cc1Nc1nc(C(F)(F)F)ccc1C(=O)Nc1cccc(C(F)(F)F)c1 was 11.7 µM

Reported A549 NSCLC TGI for item Cn1c2c([N+](=O)[O-])[se]nc2c(=O)n1-c1ccc([N+](=O)[O-])cc1 was 20.6 µM
